molecular target: T1, Peptide-20 (cysteine pairing not given here; also: biotinylated (site not given here)); test: ELISA, Fab on captured biotin-peptide
T1 peptide: VDFCSFYRWPICET
Where no end group is shown, it is not given here.
Collected pEC50 values appear next to each entry.
FYI, pEC50 means -log10 of a concentration in mol per litre.

TBD-6 (LC I93A) (Fab, V domains shown, Fab; also called LC I93A mutant) VH: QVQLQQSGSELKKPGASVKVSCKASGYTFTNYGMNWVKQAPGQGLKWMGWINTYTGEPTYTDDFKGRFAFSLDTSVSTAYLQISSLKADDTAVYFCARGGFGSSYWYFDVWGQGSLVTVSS VL: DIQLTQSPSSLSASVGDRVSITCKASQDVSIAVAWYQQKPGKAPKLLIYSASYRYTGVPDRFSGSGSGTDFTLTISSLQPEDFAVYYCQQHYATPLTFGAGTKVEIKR    6.85

// below: pEC50 requested for another binder
Challenge: Given the binder TBD-1 wt (Fab, V domains shown, Fab; the heavy chain entry is VH-CH1; also called wild-type anti-TROP2 Fab (hRS7); TROP2 Fab) VH: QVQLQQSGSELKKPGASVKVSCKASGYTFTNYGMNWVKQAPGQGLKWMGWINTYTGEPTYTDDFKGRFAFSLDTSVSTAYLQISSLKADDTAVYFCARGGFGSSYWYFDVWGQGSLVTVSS VL: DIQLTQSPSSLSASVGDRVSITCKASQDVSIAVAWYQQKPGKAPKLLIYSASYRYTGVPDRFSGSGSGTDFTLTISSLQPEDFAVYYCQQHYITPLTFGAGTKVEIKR , write its reported pEC50.
Response given: 6.22
